- System: M19-MEL
- Protocol Text: NCI tumour cell line growth inhibition, 48 h
Activity calls are given as the source filed them. Cut-off read from the data, not from the text of the source: active = GI50 up to about 1.1 µM and inactive = higher.
Recorded Endpoint: GI50

Molecule | Result
COc1cc(OC)c(SSCCCCS(=O)O)c(OC)c1 | 7.52 µM (inactive)

input: Entry under review: O=C(CCN1CCCCC1)N1CCc2c([nH]c3ccccc23)C1c1cccnc1 (configuration not stated) . Reported GI50?
output: 21.2 µM (inactive)

input: What GI50 value was documented for this molecule, `O=P(CN1CCOCC1)(c1ccccc1)c1ccccc1` ?
output: > 100 µM (inactive)

input: Record request: GI50 value, item CC(CN(C)C)C(=O)c1ccccc1 (configuration not stated)
output: 19.1 µM (inactive)

input: For Cc1c2n(c(=O)[nH]c1=O)C1OC(CO)C(O2)C1N=[N+]=[N-] (configuration not stated) , what is its reported GI50?
output: > 100 µM (inactive)

input: State the recorded GI50 for this entry: `Cn1cnnc1Sc1c([N+](=O)[O-])nc(-c2ccc([N+](=O)[O-])cc2)n1C`
output: 17.8 µM (inactive)

FYI, the data here is from ChEMBL document CHEMBL1201862.
